TARGET: MAGE-A11:PCF11 interaction (GST-MAGE-A11 MHD and FAM-PCF11_4) (Homo sapiens)
Construct: GST-MAGE-A11 MHD (human MAGE-A11 MHD amino acid 218-429); made in house; host or cells: E. coli BL21(DE3)
Sequence (P43364 218-429): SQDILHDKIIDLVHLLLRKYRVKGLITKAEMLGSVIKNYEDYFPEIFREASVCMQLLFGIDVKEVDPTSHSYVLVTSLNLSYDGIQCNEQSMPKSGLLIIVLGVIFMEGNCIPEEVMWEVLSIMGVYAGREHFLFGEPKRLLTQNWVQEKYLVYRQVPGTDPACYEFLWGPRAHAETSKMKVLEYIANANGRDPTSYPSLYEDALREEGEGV
ASSAY OVERVIEW: TR-FRET dose response test of compounds for disruption of MAGE-A11:PCF11 binding
RUN CONDITIONS: Supplementary Data 3, 59 quinoline compounds; read-out: TR-FRET IC50
RECORDED ENDPOINT: IC50

FC(F)(F)c1ccc2c(NCCCNCc3cc(Br)cs3)ccnc2c1 | > 70 µM
CCCN(CCCNc1ccnc2cc(Cl)ccc12)Cc1cc(C(F)(F)F)ccc1OC | > 70 µM
FC(F)(F)Oc1ccccc1CN(CCCCNc1ccnc2cc(Cl)ccc12)Cc1ccccc1 | > 70 µM
Oc1c(F)cc(F)cc1CN(CCCCNc1ccnc2cc(Cl)ccc12)Cc1ccccc1 | > 70 µM
Clc1ccc2c(NCCCN(Cc3ccccc3)Cc3ccc4[nH]ccc4c3)ccnc2c1 | 41.7 µM
CCCN(CCCNc1ccnc2cc(Cl)ccc12)Cc1c(C)cc(C)cc1C | > 70 µM
Cc1cc(C)c(CN(CCCNc2ccnc3cc(Cl)ccc23)Cc2ccccc2)c(C)c1 | > 70 µM
CCCCCCNCCCNc1ccnc2cc(C(F)(F)F)ccc12 | 57.6 µM
c1coc(CNCCCNc2ccnc3cc(-c4ccc5c(c4)OCO5)ccc23)c1 | > 70 µM
CCCN(CCCNc1ccnc2cc(C(F)(F)F)ccc12)Cc1ccc2[nH]ccc2c1 | 33.2 µM

Give IC50 for each of the items listed below.
1. CCCN(CCCNc1c2ccc(Cl)cc2nc2ccc(OC)cc12)Cc1c(Cl)ccc(Cl)c1Cl
2. Clc1cccc(-c2ccc(CNCCCNc3ccnc4cc(Cl)ccc34)o2)c1
3. CCC(C)CN(CCCCNc1ccnc2cc(Cl)ccc12)Cc1ccccc1 (centres unmarked)
4. CCCN(CCCNc1ccnc2cc(Cl)ccc12)Cc1ccc(CC)cc1
5. FC(F)(F)Oc1ccc(CN(CCCCNc2ccnc3cc(Cl)ccc23)Cc2ccccc2)cc1
6. Clc1cccc(Cl)c1Cc1ccc2c(NCCCNCc3ccco3)ccnc2c1
7. COc1ccc(C(F)(F)F)cc1CN(CCCCNc1ccnc2cc(Cl)ccc12)Cc1ccccc1

Found:
1: > 70 µM; 2: > 70 µM; 3: > 70 µM; 4: > 70 µM; 5: > 70 µM; 6: 38.4 µM; 7: > 70 µM

###

TARGET: MAGE-A11:PCF11 interaction (GST-MAGE-A11 and FAM-PCF11_4) (Homo sapiens)
Construct: GST-MAGE-A11 MHD (human MAGE-A11 MHD amino acid 218-429); made in house; host or cells: E. coli BL21(DE3)
ASSAY OVERVIEW: TR-FRET primary / single point screen at 15 µM
Assay type: binding
RUN CONDITIONS: single point TR-FRET screening of 797 quinoline compounds against MAGE-A11:PCF11
Please go through the items and note down their percent inhibition (TR-FRET).
Give bare numbers.

Consider the following illustrative entries.
Cc1ccc(S(=O)(=O)c2cnc3ccc(F)cc3c2N2CCN(c3ccc(F)cc3)CC2)cc1 | -70.4952
COc1ccc2nc3cc(Cl)ccc3c(NCCCNCc3ccc(Br)o3)c2c1 | -219.419
COc1ccc2nc3cc(Cl)ccc3c(NCCCNCc3ccc(Cl)cc3Cl)c2c1 | -97.8295

Now for the molecule whose percent inhibition (TR-FRET) we want.
Lookup: Reported percent inhibition (TR-FRET) for `Clc1ccc2c(N3CCN(CCCN4CCN(c5ccnc6cc(Cl)ccc56)CC4)CC3)ccnc2c1` : what is it?
Found: -2.9894

All values here come from paper PMC7529893.
